Data origin, for the record: a melting point compilation (Tetko et al.; mined from patent text by program, amines drawn as free bases though some values may be those of a salt)

So I've got a bunch of molecules here, and I need their melting point values.

Query block: Fill in the blank: the reported melting point of `O=C(NC(=O)c1c(Cl)cccc1Cl)Nc1ccc(-c2ccc(Cl)cc2)cn1` is ____.
Result block: 230 to 233 °C

Query block: Also, `CN(C)C(=O)c1cccnc1S` please.
Result block: 200 to 208 °C

Query block: Also, `O=c1[nH]c2ccc(Br)cc2n1Cc1ccccc1` please.
Result block: 245 to 246 °C

Query block: Also, `Cc1cccc(-c2c[nH]nc2-c2ccnc(-c3ccc(OCCN4CCCC4)cc3)c2)n1` please.
Result block: 96 °C

Query block: Also, `CCCn1nc(C(F)F)nc1Cc1ccc(-c2ccccc2-c2nnn[nH]2)nc1` please.
Result block: 176 to 178 °C

Query block: Also, `CSc1cc2c(cn1)c(=O)n1nc(C)cc1n2C` please.
Result block: > 300 °C

Query block: Also, `Oc1nc2ccc(F)cc2nc1O` please.
Result block: > 300 °C

Query block: Also, CS(=O)c1ccccc1CN1CCC(=O)C(C(c2ccc(F)cc2)c2ccc(F)cc2)C1 (stereo not given) please.
Result block: 187 to 189 °C

Query block: Also, `CNC(=O)Oc1ccc2c(c1)c1c(n2C)C2(CC1)CCN(C(=O)c1ccccc1)CC2` please.
Result block: 189 to 190 °C

Query block: Also, `COc1cc(-c2nc(N(C)CCO)c3c(C)c(C#N)sc3n2)cc(OC)c1OC` please.
Result block: 164 to 166 °C

Query block: Also, Cc1nc2c3c(c(C(=O)N(C)C)cc2n1C)CCC(c1ccccc1)N3 (stereo not given) please.
Result block: 167 to 170 °C

Query block: Also, `C[C@@H](NC(=O)C1CCC1)c1cccc(C(=O)c2ccccc2)c1` please.
Result block: 90 to 93 °C

Query block: Also, `COc1ccc(C(=O)CC(=O)c2ccc(O)cc2O)cc1OC` please.
Result block: 263 to 265 °C

Query block: Also, `Cc1cc(C(N)=O)cc(C)c1C(=O)O` please.
Result block: 238 to 240 °C

Query block: Also, `COc1c(C=O)c(=O)n(C)c(=O)n1C` please.
Result block: 105 to 107 °C

Query block: Also, `O=C(Nc1ccc(CN2CCCCC2)cc1)C1=Cc2cc(-c3ccccc3)ccc2CC1` please.
Result block: 163 to 164 °C

Query block: Also, CC(SC1COC(c2ccc(C(=O)Nc3ccc(CC#N)cc3)cc2)OC1)C(O)(Cn1cncn1)c1ccc(F)cc1F (stereo not given) please.
Result block: 188 °C

Query block: Also, CC1OCCn2c1nc(C(=O)O)c(OCc1ccccc1)c2=O (stereo not given) please.
Result block: 167 to 168 °C

Query block: Also, `CCCCCCc1cnc(-c2ccc(F)cc2)nc1` please.
Result block: 39 °C

Query block: Also, `C[C@H]1C=CC2=C[C@@H](O)C[C@H](OC(=O)C(C)(C)Oc3ccc(F)cc3)[C@@H]2[C@H]1CC[C@@H]1C[C@@H](O)CC(=O)O1` please.
Result block: 142 to 145 °C

====

So I've got a bunch of compounds here, and I need their melting point values.

Query block: Fill in the blank: the reported melting point of `CC(C)(C)CC(=O)c1c(-c2ccc3cc(O)ccc3c2)oc2ccccc12` is ____.
Result block: 205 to 207 °C

Query block: Also, `O=C(NCc1ccc(Cl)cc1)c1cn(CCN2CCCC2)c2ccc(C#CCO)cc2c1=O` please.
Result block: 189 to 192 °C

Query block: Also, `O=C1/C(=C(\NC2CCCCC2)c2ccccc2)Sc2ccccc21` please.
Result block: 122 to 123 °C

Query block: Also, `CC(=O)c1ccc(-c2nccn2C)cc1` please.
Result block: 88 to 93 °C

Query block: Also, `c1cc(CC[C@H]2CNCCN2)ccn1` please.
Result block: 113 to 116 °C

Query block: Also, `C#Cc1cnn2c(C3CC3)cc(-c3ccc(Cl)cc3)nc12` please.
Result block: 181 to 182 °C

Query block: Also, `COC(=O)NC(=O)c1c(Br)ccc2c(C(F)(F)F)c(OC)ccc12` please.
Result block: 180 to 182 °C

Query block: Also, `CCOC(=O)NNC(=O)NC1c2ccccc2Oc2ccccc21` please.
Result block: 188 to 191 °C

Query block: Also, `CS(=O)(=O)Nc1cccc(Nc2nc(NCc3ccccc3O)c3nc[nH]c3n2)c1` please.
Result block: 168 to 171 °C

Query block: Also, `CC(C)C(=C(c1ccccc1)c1ccccc1)P(C1CCCCC1)C1CCCCC1` please.
Result block: 162 to 163 °C
